So I've got a bunch of compounds here, and I need their Cmax values.
Assay type: in vivo, Sprague Dawley rats
experimental.parameters: Sprague-Dawley, rat, plasma, po, 100 mg/kg, Cmax, GOS group (1.0 g/d/rat, two weeks); plasma after intragastric ginsenoside Rb1 100 mg/kg; mean ± SE
Just the number in ng/mL, nothing appended.

Q: Supply Cmax value. Item: CC(C)=CCC[C@](C)(O[C@@H]1O[C@H](CO)[C@@H](O)[C@H](O)[C@H]1O)[C@H]1CC[C@]2(C)[C@@H]1[C@H](O)C[C@@H]1[C@@]3(C)CC[C@H](O[C@@H]4O[C@H](CO)[C@@H](O)[C@H](O)[C@H]4O[C@@H]4O[C@H](CO)[C@@H](O)[C@H](O)[C@H]4O)C(C)(C)[C@@H]3CC[C@]12C [Rd, ginsenoside Rd]
Result: 156

Q: Supply Cmax value. Item: CC(C)=CCC[C@](C)(O[C@@H]1O[C@H](CO)[C@@H](O)[C@H](O)[C@H]1O)[C@H]1CC[C@]2(C)[C@@H]1[C@H](O)C[C@@H]1[C@@]3(C)CC[C@H](O[C@@H]4O[C@H](CO)[C@@H](O)[C@H](O)[C@H]4O)C(C)(C)[C@@H]3CC[C@]12C [F2, ginsenoside F2]
Result: 11.4

Q: Supply Cmax value. Item: CC(C)=CCC[C@](C)(O[C@@H]1O[C@H](CO[C@@H]2O[C@H](CO)[C@@H](O)[C@H](O)[C@H]2O)[C@@H](O)[C@H](O)[C@H]1O)[C@H]1CC[C@]2(C)[C@@H]1[C@H](O)C[C@@H]1[C@@]3(C)CC[C@H](O[C@@H]4O[C@H](CO)[C@@H](O)[C@H](O)[C@H]4O[C@@H]4O[C@H](CO)[C@@H](O)[C@H](O)[C@H]4O)C(C)(C)[C@@H]3CC[C@]12C [Rb1, ginsenoside Rb1]
Result: 1210

Source listed as paper PMC8020290.
